B1: TPR 5TU (parent)
chain: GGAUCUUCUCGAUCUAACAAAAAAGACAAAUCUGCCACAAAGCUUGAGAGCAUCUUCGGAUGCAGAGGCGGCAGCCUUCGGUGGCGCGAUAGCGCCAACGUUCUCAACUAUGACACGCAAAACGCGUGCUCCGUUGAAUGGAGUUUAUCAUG

Variants of: B1
Assay: polymerase ribozyme fitness, log enrichment relative to wild type (log ratio); higher = more active; in vitro selection for triplet polymerase activity
Variants at the floor of the assay were thinned out.
Measure name: polymerase ribozyme fitness (log ratio)

INSERT INTO measurements (variant_designation, measure_name, result) VALUES
  ('U53A U55A G83U C123A G128U A147U', 'polymerase ribozyme fitness (log ratio)', '≤ -4.2'),
  ('G50U U55G C75A A97G A137U U151A', 'polymerase ribozyme fitness (log ratio)', '≤ -4.2'),
  ('A28U G42C U44C C75G C96A A115G', 'polymerase ribozyme fitness (log ratio)', '≤ -4.2'),
  ('A20U U61A C72A C75U C93G C99A C131G', 'polymerase ribozyme fitness (log ratio)', '≤ -4.2'),
  ('A28U G83C G92U C96U', 'polymerase ribozyme fitness (log ratio)', '≤ -4.2');

Pending variant:
For G48U G94A U151C the variant record lists polymerase ribozyme fitness (log ratio) as ≤ -4.2
